Origin of values: patent US20240150440A1

Provide the recorded Kd for the entries that follow.
molecular target: recombinant SARS-CoV-2 RBD with C-terminal AviTag (SARS-CoV-2, UniProt P0DTC2 319-541)
Numbers only, in nM.

Known Kd results, listed for orientation:
Binder: MBP-R5D-D4-H6 (VHH, not shown: large carriers; small tags and cut ends) VHH: QVQLVESGGGLVQPGGSLRLSCAASGSDFTINAMHWFRQAPGKQREFVATITSTSSTAYRDSVKGRFTISRDNAKNTVYLQMNSLKPEDTAVYYCAAFAVRDADTAGWTARDYWGQGTQVTVSS
Quantity Measured: Kd
Reported Result: 100
//
Binder: MBP-5HVZ-R5D-G6-H6 (VHH, not shown: large carriers; small tags and cut ends) VHH: QVQLVESGGGLVQPGGSLRLSCAASGRILAANIVHWYRQAPGKNREGVAGITSGGSTYYADSVKGRFTISRDNAKNTVYLQMNSLKPEDTAVYYCAAKPLGSPDDFDYWGQGTQVTVSS
Quantity Measured: Kd
Reported Result: 31.3
//
Binder: MBP-5HVZ-R5E-G2-H6 (VHH, not shown: large carriers; small tags and cut ends) VHH: QVQLVESGGGLVQPGGSLRLSCAASGTIKSINAMHWFRQAPGKAREFVASIGSNGAKSYSDSVKGRFTISRDNAKNTVYLQMNSLKPEDTAVYYCTALITVAESDDYDYWGQGTQVTVSS
Quantity Measured: Kd
Reported Result: 3.14

The record that follows has no Kd shown yet.
**Query** What Kd value was documented for this binder, MBP-5HVZ-R5D-E4-H6 (VHH, not shown: large carriers; small tags and cut ends) VHH: QVQLVESGGGLVQPGGSLRLSCAASGQISSNNGMHWFRQAPGKRREFVATATTGGTTSYADSVKGRFTISRDNAKNTVYLQMNSLKPEDTAVYYCTALLMSRAGEFDYWGQGTQVTVSS ?
**Result** 9.34
